- TESTED_SYSTEM: T1, recombinant human midkine (huMK) (human, UniProt P21741 21-143)
- T1 sequence (looked up): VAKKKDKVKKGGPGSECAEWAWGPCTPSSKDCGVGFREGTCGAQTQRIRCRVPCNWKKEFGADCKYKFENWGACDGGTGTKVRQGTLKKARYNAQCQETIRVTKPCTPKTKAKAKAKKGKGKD
- PROTOCOL: cell-based or functional assay
Reported % Inhibition of UMR106 cell migration, Assay 5 values for a set of binders
MEASURED_PROPERTY: % Inhibition of UMR106 cell migration, Assay 5

BINDER: IP14-H5L8 (antibody, V domains shown, also called hIP14-H5L8; Hv5 Lv8) VH: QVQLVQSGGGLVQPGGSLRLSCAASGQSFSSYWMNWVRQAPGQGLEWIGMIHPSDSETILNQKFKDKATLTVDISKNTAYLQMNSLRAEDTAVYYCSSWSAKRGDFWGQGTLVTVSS VL: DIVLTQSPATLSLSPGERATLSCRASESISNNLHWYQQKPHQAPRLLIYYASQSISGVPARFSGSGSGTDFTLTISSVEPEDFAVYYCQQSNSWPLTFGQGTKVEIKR
OBSERVED_MEASUREMENT: 31%
--
BINDER: murine IP14 precursor antibody (antibody, V domains shown, Murine monoclonal antibody; also called mIP14; mAb IP14) VH: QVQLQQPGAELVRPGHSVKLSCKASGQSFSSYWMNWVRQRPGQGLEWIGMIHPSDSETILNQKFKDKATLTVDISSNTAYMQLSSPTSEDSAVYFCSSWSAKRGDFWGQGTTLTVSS VL: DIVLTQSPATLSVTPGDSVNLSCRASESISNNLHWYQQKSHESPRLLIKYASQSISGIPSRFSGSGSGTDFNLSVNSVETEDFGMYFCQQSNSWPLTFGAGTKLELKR
OBSERVED_MEASUREMENT: 10%
--
BINDER: IP14-H6L8 (antibody, V domains shown, also called hIP14-H6L8; Hv6 Lv8) VH: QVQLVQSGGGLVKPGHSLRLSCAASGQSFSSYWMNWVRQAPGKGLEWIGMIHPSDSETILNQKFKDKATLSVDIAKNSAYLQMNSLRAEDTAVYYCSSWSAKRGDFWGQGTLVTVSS VL: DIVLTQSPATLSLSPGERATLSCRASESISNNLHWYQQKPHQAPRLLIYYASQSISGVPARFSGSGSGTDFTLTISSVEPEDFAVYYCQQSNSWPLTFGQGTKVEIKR
OBSERVED_MEASUREMENT: 24%
--
BINDER: IP14-H6L3 (antibody, V domains shown, also called hIP14-H6L3; Hv6 Lv3) VH: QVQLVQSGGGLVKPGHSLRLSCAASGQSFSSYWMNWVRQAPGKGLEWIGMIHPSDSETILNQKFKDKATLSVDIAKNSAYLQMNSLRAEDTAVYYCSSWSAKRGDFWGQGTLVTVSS VL: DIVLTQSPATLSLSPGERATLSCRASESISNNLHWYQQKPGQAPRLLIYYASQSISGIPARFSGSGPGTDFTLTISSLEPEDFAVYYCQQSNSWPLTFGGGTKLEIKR
OBSERVED_MEASUREMENT: 40%
